B1: MATN2 (parent)
chain: FIVDILQFLDIGPDVTRVGLLQYG

- Variants of: B1
- method.description: protein stability index of a GFP-peptide fusion (GPS, HEK-293T) (PSI 1-6); higher = more stable;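 also: lentivirally expressed fusions sorted by FACS into six bins by GFP to DsRed ratio, PSI derived from sequencing read proportions per bin multiplied by bin number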
- assay.setup: c terminus: a fixed tail appended
Record form. Attribute: protein stability index. Fill in for each entry.
API doc: respond with a numeric literal and nothing else, no unit.

*Q* Recorded protein stability index for FIVDILQKLDIGPDVTRVGLLQYG [F8K] , please?
*A* 1.06

*Q* Subsequent entry: FIVVILQFLDIGPDVTRVGLLQYG [D4V]
*A* 2.77

*Q* Subsequent entry: WIVDILQFLDIGPDVTRVGLLQYG [F1W]
*A* 2.01

*Q* Subsequent entry: FIVDILQFLDLGPDVTRVGLLQYG [I11L]
*A* 2.53

*Q* Subsequent entry: FIVDILQFLDIGPDVTRVGWLQYG [L20W]
*A* 3.97

*Q* Subsequent entry: FIVDILQFLDIGPDVGRVGLLQYG [T16G]
*A* 2.19

*Q* Subsequent entry: FIVDILQFLDIIPDVTRVGLLQYG [G12I]
*A* 2.79

*Q* Subsequent entry: FIVDILQFLLIGPDVTRVGLLQYG [D10L]
*A* 2.62

*Q* Subsequent entry: FIVDILQFLDIGPDVTRFGLLQYG [V18F]
*A* 3.25

*Q* Subsequent entry: FIVDILQFLDIGPDVTRVGHLQYG [L20H]
*A* 2.86

*Q* Subsequent entry: FIVDILQFLDIGPDVTRVGALQYG [L20A]
*A* 2.25

*Q* Subsequent entry: FIVDALQFLDIGPDVTRVGLLQYG [I5A]
*A* 1.44

*Q* Subsequent entry: FIVDILQFLDIGPDVLRVGLLQYG [T16L]
*A* 3.03

*Q* Subsequent entry: FIVDILQFLDIGPDVTRVGLIQYG [L21I]
*A* 2.79

*Q* Subsequent entry: FRVDILQFLDIGPDVTRVGLLQYG [I2R]
*A* 2.35

*Q* Subsequent entry: FIVDILQFLDIGPDVTRVVLLQYG [G19V]
*A* 2.69

*Q* Subsequent entry: FIVDILQFLDIGPDVTRQGLLQYG [V18Q]
*A* 1.8

*Q* Subsequent entry: FIVDIRQFLDIGPDVTRVGLLQYG [L6R]
*A* 3.41

*Q* Subsequent entry: FIVDILQFLDIGPDVTFVGLLQYG [R17F]
*A* 2.23

*Q* Subsequent entry: FIVDILQFLDIGPDVTRVGLLQYA [G24A]
*A* 2.27

*Q* Subsequent entry: FIVDILQFLDIGPDITRVGLLQYG [V15I]
*A* 2.16

*Q* Subsequent entry: FIVDILKFLDIGPDVTRVGLLQYG [Q7K]
*A* 3.78

*Q* Subsequent entry: FIVDIFQFLDIGPDVTRVGLLQYG [L6F]
*A* 2.17

*Q* Subsequent entry: FIVDILQFLDIGQDVTRVGLLQYG [P13Q]
*A* 4

*Q* Subsequent entry: FIVDILQFLDIMPDVTRVGLLQYG [G12M]
*A* 2.11

*Q* Subsequent entry: FIVDILQFLDIGPDVTRVGLHQYG [L21H]
*A* 2.01

*Q* Subsequent entry: FIVDILQFLDIGPDVTRVMLLQYG [G19M]
*A* 3.24

*Q* Subsequent entry: FIVDILQFLDIGPDVTRDGLLQYG [V18D]
*A* 2.04

*Q* Subsequent entry: FIVDILQFLDIGPDYTRVGLLQYG [V15Y]
*A* 3.39

*Q* Subsequent entry: FIVDILQFLDIGEDVTRVGLLQYG [P13E]
*A* 2.72

*Q* Subsequent entry: FIVDILQFLDIGFDVTRVGLLQYG [P13F]
*A* 1.91

*Q* Subsequent entry: FIVDILQFLDIGPDVTRVPLLQYG [G19P]
*A* 2.58

*Q* Subsequent entry: FIVDILSFLDIGPDVTRVGLLQYG [Q7S]
*A* 2.27

*Q* Subsequent entry: FIPDILQFLDIGPDVTRVGLLQYG [V3P]
*A* 2.84

*Q* Subsequent entry: FIVDILQFLDIGPDVTRVHLLQYG [G19H]
*A* 3.51

*Q* Subsequent entry: FIVDILEFLDIGPDVTRVGLLQYG [Q7E]
*A* 3.38

*Q* Subsequent entry: FIVDILDFLDIGPDVTRVGLLQYG [Q7D]
*A* 3.01

*Q* Subsequent entry: FIVDILQFLDIGHDVTRVGLLQYG [P13H]
*A* 2.73

*Q* Subsequent entry: FTVDILQFLDIGPDVTRVGLLQYG [I2T]
*A* 1.4

*Q* Subsequent entry: FIVDILQFLDSGPDVTRVGLLQYG [I11S]
*A* 2.12

*Q* Subsequent entry: FIVDILQFLDIGPDVTAVGLLQYG [R17A]
*A* 3.59

*Q* Subsequent entry: FIYDILQFLDIGPDVTRVGLLQYG [V3Y]
*A* 2.5

*Q* Subsequent entry: FIVDILQFLDIGPDVTRVGLLAYG [Q22A]
*A* 2.48

*Q* Subsequent entry: FKVDILQFLDIGPDVTRVGLLQYG [I2K]
*A* 2.88

*Q* Subsequent entry: FIVDVLQFLDIGPDVTRVGLLQYG [I5V]
*A* 3.23

*Q* Subsequent entry: FIVDILQFLDMGPDVTRVGLLQYG [I11M]
*A* 3.73

Measured values drawn from the supplement of paper PMC10567573 for this set.
